# studyTarget: Muscarinic acetylcholine receptor
# procedureDetails: Binding activity against Muscarinic acetylcholine receptor in rat cortex, using [3H]QNB as a radioligand.
# Assay type: tissue-based
measuredAttribute: Ki (nM)
The reply should contain only the number, in nM.

Worked set:
CC(C)(C)OC(=O)N1CCC[C@H]1C#CCN1CCCC1 ... 980
CCOC(=O)N1CCC[C@H]1C#CCN1CCCC1 ... 310
COC(=O)N1CCC[C@@H]1C#CCN1CCCC1 ... 810
CC(=O)N1CCC[C@@H]1C#CCN1CCCC1.Cl ... 430
Cl.O=C(N1CCC[C@H]1C#CCN1CCCC1)C(F)(F)F ... 3450
CC(=O)N1CCC[C@@H]1C#CC[N+](C)(C)C ... 2230
Cl.O=C(N1CCC[C@@H]1C#CCN1CCCC1)C(F)(F)F ... 360
CN(C)CC#C[C@H]1CCCN1C(=O)OC(C)(C)C ... 3200
CS(=O)(=O)N1CCC[C@@H]1C#CCN1CCCC1.Cl ... 1920
CCOC(=O)N1CCC[C@@H]1C#CCN1CCCC1 ... 1160

Query the reported Ki for Muscarinic acetylcholine receptor; item: `O=CN1CCC[C@@H]1C#CCN1CCCC1`
2390

Query the reported Ki for Muscarinic acetylcholine receptor; item: `CN(C)CC#C[C@@H]1CCCN1C(=O)OC(C)(C)C`
11400
